Biological target: human adenosine A2A receptor (Homo sapiens, UniProt P29274)
Construct: expressed in transfected cells; host or cells: CHO cells, Semliki Forest virus expression system; membrane preparation
Sequence (P29274 whole entry): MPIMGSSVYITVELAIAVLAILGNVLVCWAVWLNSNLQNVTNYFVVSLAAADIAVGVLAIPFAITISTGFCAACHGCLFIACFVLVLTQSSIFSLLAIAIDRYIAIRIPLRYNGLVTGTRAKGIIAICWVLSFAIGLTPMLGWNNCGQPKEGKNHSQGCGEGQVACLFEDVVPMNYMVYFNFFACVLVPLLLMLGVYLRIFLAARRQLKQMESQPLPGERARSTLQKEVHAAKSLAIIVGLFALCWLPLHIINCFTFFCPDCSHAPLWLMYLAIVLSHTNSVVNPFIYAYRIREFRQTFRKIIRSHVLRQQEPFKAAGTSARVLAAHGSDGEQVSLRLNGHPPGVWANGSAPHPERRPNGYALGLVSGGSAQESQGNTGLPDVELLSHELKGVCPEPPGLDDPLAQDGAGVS
Experiment: Human adenosine A2A receptor [3H]-SCH-58261 binding assay
Details: calculated ratio of the affinity to the HA1 receptor to the HA2a receptor
Label rule, in plain words: selectivity (A1/A2a) of 30 and up is true (1), under 30 is false (0).

Q: Does selectivity (A1/A2a) meet or surpass 30 for Nc1cc(C(=O)N2CCCC2)cc2nc(-c3ccc(Cl)o3)nn12 ?
Ans: true (1)

* * *

Target: human adenosine A2A receptor (Homo sapiens, UniProt P29274)
Construct: expressed in transfected cells; host or cells: CHO cells, Semliki Forest virus expression system; membrane preparation
Assay: Human adenosine A2A receptor [3H]-SCH-58261 binding assay
Details: affinity to human adenosine A2A receptor; read-out: Ki HA2A
Method: Human Adenosine A2A Receptor The human adenosine A2A receptor was recombinantly expressed in chinese hamster ovary (CHO) cells using the semliki forest virus expression system. […] Assay plates were incubated for 1 hour at room temperature before centrifugation and then bound ligand determined using a Packard Topcount scintillation counter. IC50 values were calculated using a non-linear curve fitting program and Ki values calculated using the Cheng-Prussoff equation.
measured_quantity: pKi
// scale note: pKi = -log10(conc_M); give the bare number

Record excerpt, results attached:
- compound_smiles: "Nc1cc(C(=O)N2CCCCCCC2)cc2nc(-c3ccc(Br)o3)nn12"
  target: "human adenosine A2A receptor (Homo sapiens, UniProt P29274)"
  pKi: 8.89
- compound_smiles: "CCCCNC(=O)c1cc(N)n2nc(-c3ccc(C)s3)nc2c1"
  target: "human adenosine A2A receptor (Homo sapiens, UniProt P29274)"
  pKi: 7.38
- compound_smiles: "CC(C)N(C)C(=O)c1cc(N)n2nc(-c3ccc(Br)o3)nc2c1"
  target: "human adenosine A2A receptor (Homo sapiens, UniProt P29274)"
  pKi: 8.57
- compound_smiles: "Nc1cc(C(=O)NC2CCCCC2)cc2nc(-c3ccoc3)nn12"
  target: "human adenosine A2A receptor (Homo sapiens, UniProt P29274)"
  pKi: 7.06

Turning to the following compound.
Q: Given the entry Cc1ccc(-c2nc3cc(C(=O)NC4CCCCC4)cc(N)n3n2)o1 , report its measured pKi.
Ans: 6.91

Origin of the recorded values: patent US6506772B1
